The measurements presented in this section are drawn from PubChem BioAssay AID1851.

Biological target: Cytochrome P450 1A2 (Homo sapiens) (UniProt P05177)
Sequence (P05177 whole entry, looked up): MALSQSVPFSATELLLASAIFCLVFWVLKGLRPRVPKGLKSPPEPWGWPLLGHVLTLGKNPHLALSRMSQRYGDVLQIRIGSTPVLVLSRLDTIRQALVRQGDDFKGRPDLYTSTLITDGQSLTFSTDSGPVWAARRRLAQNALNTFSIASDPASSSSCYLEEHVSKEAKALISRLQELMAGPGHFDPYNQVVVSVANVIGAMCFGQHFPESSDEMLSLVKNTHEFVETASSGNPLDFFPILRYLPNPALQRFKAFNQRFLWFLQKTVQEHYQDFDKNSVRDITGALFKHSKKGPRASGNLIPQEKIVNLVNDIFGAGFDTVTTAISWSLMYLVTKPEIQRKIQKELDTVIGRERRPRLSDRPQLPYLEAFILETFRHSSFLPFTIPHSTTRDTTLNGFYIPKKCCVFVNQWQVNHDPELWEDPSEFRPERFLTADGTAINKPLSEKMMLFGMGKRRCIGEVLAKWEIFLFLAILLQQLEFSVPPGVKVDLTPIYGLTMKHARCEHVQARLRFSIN
Assay: Cytochrome panel assay with activity outcomes
Details: recombinant CYP, pro-luciferin dealkylation, luminescence, p450-cyp1a2; series mostly up to 57.1 µM
Hit rate of the full screen: of about 16,000 compounds, about 5,700 (36%) were called active. Another 24% or so got no clear call; they are omitted. The call rests on the fitted dose curve; in most records, active means well fitted curve in the direction sought with a large enough effect; inconclusive means small, poorly fitted or top-dose-only effect, or effect the other way; inactive means no such curve, though single readings can be large or run the other way. The list shows a part of the results.
Outcome codes: active, inactive

Compound	Answer Label
CC(C)NC[C@H](O)c1ccc2ccccc2c1	active
Cc1cc(C)nc(Nc2n[nH]c(COc3cccc4ccccc34)n2)n1	active
CC(C)NC[C@H](O)c1ccc(NS(C)(=O)=O)cc1	inactive
CC(C)NC[C@H](O)COc1cccc2ccccc12	active
O[C@@](CCN1CCCCC1)(c1ccccc1)[C@@H]1C[C@H]2C=C[C@@H]1C2	inactive
COc1ccc(CNc2ccnc(-c3ccccc3Cl)n2)c(OC)c1	active
NCC[C@H]1CCC[C@H](CCN)N1	inactive
Clc1ccc(-n2nnnc2CN2CCOCC2)cc1	active
COC(=O)[C@@]1(Cc2ccc(F)cc2)[C@H]2c3cc(C(=O)N4CCCC4)n(Cc4ccc(C)c(F)c4F)c3C[C@H]2CN1C(=O)c1ccccc1	inactive
c1cncc(-c2nc(NCc3cccs3)c3ccccc3n2)c1	active
NC(=O)c1ncn([C@@H]2O[C@@H](CO)[C@@H](O)[C@H]2O)c1O	inactive
COc1ccccc1-c1ccc2ncnc(N3CCOCC3)c2c1	active
CCCOc1ccccc1-c1nc2n[nH]nc2c(=O)[nH]1	active
Nc1nc2n[nH]nc2c(=O)[nH]1	inactive
OC[C@@H](O)COc1cccc2ccccc12	active
Clc1ccc(/C=N/Nc2nnc(-c3ncc[nH]3)c3ccccc23)cc1	active
O=C(O)C1CCN(c2ncnc3ccc(-c4ccccc4C(F)(F)F)cc23)CC1	inactive
Cc1cc(C)nc(Nc2n[nH]c(-c3cccc4ccccc34)n2)n1	active
CCS(=O)(=O)c1ccc2c(c1)N(S(C)(=O)=O)CC(C(=O)NCCOC)O2 (stereo not drawn)	inactive
O=C(O)c1cc(=O)c2c(OCC(O)COc3cccc4oc(C(=O)O)cc(=O)c34)cccc2o1	inactive
CN(C)c1ccc(-c2cncnc2NCCc2cnc[nH]2)cc1	active
CC(C)NC[C@@H](O)COc1ccc(COCCOC(C)C)cc1	inactive
CCc1c(C(C)O)oc2ccc3c(C)cc(=O)oc3c12 (stereo not drawn)	active

---

Target: Cytochrome P450 1A2 (Homo sapiens)
Experiment: Cytochrome panel assay with activity outcomes
Settings: recombinant CYP, pro-luciferin dealkylation, luminescence, p450-cyp1a2; series mostly up to 57.1 µM
The campaign covered roughly 16,000 compounds. About 5,700 (36%) were called active. About 24% were inconclusive and are not listed. Calls come from the whole dose curve; as a rule, active = well fitted curve in the direction sought with a large enough effect; inconclusive = small, poorly fitted or top-dose-only effect, or effect the other way; inactive = no such curve, though single readings can be large or run the other way. This is one part of the list.
Outcome codes: 1.0 for active, 0.0 for inactive

Compound	Answer Label
CCCCCCCOC1(c2ccccc2)OC(=O)c2ccccc21 (stereo unspecified)	0.0
S=C(Nc1ccccc1)Nc1ccccc1C#Cc1ccccc1	1.0
COCC(=O)N1CCC[C@@]2(CCN(c3ncccn3)C2)C1	0.0
Cc1cccc(C)c1OC1(c2ccccc2)OC(=O)c2ccccc21 (stereo unspecified)	1.0
OC[C@@H]1O[C@@H](n2cnc3cncnc32)[C@@H](O)[C@H]1O	0.0
C=CCN1CCc2cc(O)c(O)cc2[C@H](c2ccccc2)C1	0.0

---

Target: Cytochrome P450 1A2 (Homo sapiens) (UniProt P05177)
Test: Cytochrome panel assay with activity outcomes
Conditions: recombinant CYP, pro-luciferin dealkylation, luminescence, p450-cyp1a2; series mostly up to 57.1 µM
Screen size: about 16,000 compounds; about 5,700 (36%) were called active. Another 24% or so got no clear call; they are omitted. Calls come from the whole dose curve; as a rule, active = well fitted curve in the direction sought with a large enough effect; inconclusive = small, poorly fitted or top-dose-only effect, or effect the other way; inactive = no such curve, though single readings can be large or run the other way. This is one part of the list.
Outcome codes: active, inactive

Compound	Answer Label
Cc1cc(C)cc(-n2c(C)cc(C=C(C#N)C#N)c2C)c1	inactive
Cc1c(Cl)cccc1NC(=O)CCC(=O)NNC(=O)c1ccco1	inactive
N#Cc1c(-n2ccnc2)cccc1-n1ccnc1	active
FC(F)(F)c1ccccc1-n1ccnc1	active
COc1ccc2[nH]cc(CCNc3ccnc(-c4c(C)noc4C)n3)c2c1	active
CC#CCOC(=O)c1c(C)nc2sc3c(c2c1N)CC[C@@H](O)C3	active
COc1ccc(CC(=O)NCCN2CCCC2)cc1	inactive
NC(N)=NC(=O)Cc1c(Cl)cccc1Cl	inactive
c1cnc(Nc2nc(-c3ccc4ccccc4c3)cs2)nc1	active
CC(C)NC(=O)N1CC2(CCN(C(=O)c3ccncc3)CC2)C1	inactive
COc1ccccc1NC(=O)c1nn(-c2cccc(C(F)(F)F)c2)ccc1=O	active
Cn1cnnc1SCC(=O)n1c2ccccc2c2ccccc21	active
CS(=O)(=O)c1ccc([C@H](O)[C@H](CO)NC(=O)C(Cl)Cl)cc1	inactive
O=C1C2=C(NC(=S)NC2c2ccc(Cl)cc2)NC(c2ccc(Cl)cc2)N1c1ccc(Cl)cc1 (centres undefined)	active
COc1ccc(CO/N=C/c2c(C)[nH]c(=O)[nH]c2=O)cc1	active
Cc1cnc(CNc2ccnc(-c3ccc(N(C)C)cc3)n2)cn1	active
COc1ccc2[nH]cc(CCNc3ccnc(-c4ccc(C(=O)N(C)C)cc4)n3)c2c1	active
CCCn1c(-c2ccccc2)nc2c(=O)n(C)c(=O)[nH]c21	inactive
COc1ccc(-c2csc(NC(=O)CCn3cnc4ccccc4c3=O)n2)cc1OC	inactive
COc1ccc(/C=N/NC(=O)CCc2ccccc2)cc1O	active
Cc1ccc(CS(=O)(=O)CCC(=O)NCCN2CCCC2)cc1	inactive
C[N+](C)(C)CCCCCCCCCC[N+](C)(C)C	inactive
Cc1cccc(/C=N\Nc2cn[nH]c(=O)c2Cl)c1	active
Cc1cccc(C)c1NC(=O)COc1cccc(/C=N/NC(=O)C(=O)NCc2ccccc2)c1	inactive
